growth values for the molecules below.
System: Escherichia coli IAI1
Assay details: growth (OD595) fold change vs plate DMSO controls (fold change (ratio)); higher = more growth
Condition set: incubation time: 27 h, anaerobic, 37 °C
Counter-ions that a name gives are not always drawn.
Just the number, please, no unit after it.

1) O=C(Nc1ccc([N+](=O)[O-])cc1Cl)c1cc(Cl)ccc1O [Niclosamide] (20 µM)
1.12
2) NCCc1c[nH]cn1 [Histamine dihydrochloride] (20 µM)
1.16
3) OC(Cn1cncn1)(Cn1cncn1)c1ccc(F)cc1F [Fluconazole] (20 µM)
0.984
4) COc1cc2nc(N3CCN(C(=O)c4ccco4)CC3)nc(N)c2cc1OC [Prazosin hydrochloride] (20 µM)
1.09
5) CCCN(CCC)S(=O)(=O)c1ccc(C(=O)O)cc1 [Probenecid] (20 µM)
1.02
6) Clc1ccc(CSC(Cn2ccnc2)c2ccc(Cl)cc2Cl)cc1 (centres undefined) [Sulconazole nitrate] (20 µM)
1.05
7) Nc1ccc(S(N)(=O)=O)cc1 [Sulfanilamide] (20 µM)
1.03
8) NS(=O)(=O)c1cc2c(cc1Cl)NC(CC1CCCC1)NS2(=O)=O (centres undefined) [Cyclopenthiazide] (20 µM)
1.03

// next entry
Exercise: Give me measured growth, please, for this molecule: CC(C)NC[C@H](O)COc1ccc(CC(N)=O)cc1 [(S,-) Atenolol] (20 µM)
Key: 0.913

---

Test system: Escherichia coli IAI1
Assay details: fold change of Cadaverine concentration vs plate DMSO controls (fold change (ratio)); higher = more amine produced, active = hit call of the paper (significant change in both replicates, either direction)
Condition set: incubation time: 27 h, anaerobic, 37 °C
Structures can show the parent of a compound that is named as a salt.
Listing: fold change of Cadaverine concentration of selected molecules

// worked examples, fold change of Cadaverine concentration included
1) Cc1c(Cl)cccc1Nc1ccccc1C(=O)O [Tolfenamic acid] (20 µM)
1.07 (inactive)
2) CC1Cc2ccccc2N1NC(=O)c1ccc(Cl)c(S(N)(=O)=O)c1 (configuration not stated) [Indapamide] (20 µM)
0.977 (inactive)
3) Clc1ccc(CCC(Cn2ccnc2)Sc2c(Cl)cccc2Cl)cc1 (configuration not stated) [Butoconazole nitrate] (20 µM)
0.995 (inactive)

Exercise: Dear colleague, please send me the reported fold change of Cadaverine concentration for c1ccc2c(c1)CCCC2C1=NCCN1 (configuration not stated) [Tetrahydrozoline hydrochloride] (20 µM) when you can.
Key: 0.966 (inactive)

Exercise: Please look at this molecule and report its fold change of Cadaverine concentration: CCOC(=O)[C@H](CCc1ccccc1)N[C@H]1CS[C@H](c2cccs2)CN(CC(=O)O)C1=O [Temocapril hydrochloride] (20 µM)
Key: 1.04 (inactive)

Exercise: Give fold change of Cadaverine concentration for CN[C@@H]1[C@@H](O)[C@@H](O[C@@H]2[C@@H](O)[C@H](O[C@H]3OC(CN)=CC[C@H]3N)[C@@H](N)C[C@H]2N)OC[C@]1(C)O [Sisomicin sulfate] (20 µM)
Key: 0.996 (inactive)

Exercise: Please list fold change of Cadaverine concentration recorded for the molecule CCOC(=O)N1CCC(=C2c3ccc(Cl)cc3CCc3cccnc32)CC1 [Loratadine] (20 µM)
Key: 1.05 (inactive)

---

Test system: Ruminococcus gnavus DSM 108212
Assay details: growth (OD595) fold change vs plate DMSO controls (fold change (ratio)); higher = more growth
Condition set: incubation time: 27 h, anaerobic, 37 °C
Counter-ions that a name gives are not always drawn.
The following compounds are listed with their measured growth values.
Returns: the value as a bare number; no unit string appended.

Use these answered entries as a reference point.
1. O=C(CCCN1CCN(c2ccccn2)CC1)c1ccc(F)cc1 [Azaperone] (20 µM)
1.12
2. CC(=O)OCC(=O)[C@@]12N=C(C)O[C@@H]1C[C@H]1[C@@H]3CCC4=CC(=O)C=C[C@]4(C)[C@H]3[C@@H](O)C[C@@]12C [Deflazacort] (20 µM)
0.905
3. N[C@@H](CSCCCO)C(=O)O [Fudosteine] (20 µM)
1.14

# next compound below
Exercise: Answer with reported growth of CC(C)(C)C(=O)OCOC(=O)[C@@H]1N2C(=O)[C@@H](/N=C/N3CCCCCC3)[C@H]2SC1(C)C [Pivmecillinam hydrochloride] (20 µM)
Key: 1.2

Entry source: the supplement of paper PMC12494721
